Ref: patent US11530198B2

- ASSAY TARGET: L. major DHFR (1mDHFR) (Leishmania major, UniProt P07382)
- Assay type: biochemical
- EXPERIMENTAL SETUP: hDHFR IC50/L. major DHFR IC50
Give yes (1) when the value for Average DHFR selectivity (h/lm)*-DHFR IC50 is at least 30. Give no (0) when it is less.

Request: In plain terms: is recorded Average DHFR selectivity (h/lm)*-DHFR IC50 at least 30 for Nc1ncc(N2CCN(c3cccc(-c4ccnc(F)c4)c3)CC2)c(N)n1 ?
Response: no (0)

Request: In plain terms: is recorded Average DHFR selectivity (h/lm)*-DHFR IC50 at least 30 for Nc1ncc(N2CCN(c3ccc(-c4ccccc4)cc3)CC2)c(N)n1 ?
Response: no (0)

Request: In plain terms: is recorded Average DHFR selectivity (h/lm)*-DHFR IC50 at least 30 for Nc1ncc(N2CCN(c3cccc(-c4cnc(N5CCC5)nc4)c3)CC2)c(N)n1 ?
Response: yes (1)

Request: In plain terms: is recorded Average DHFR selectivity (h/lm)*-DHFR IC50 at least 30 for Nc1ncc(N2CCN(c3cnc4ccccc4c3)CC2)c(N)n1 ?
Response: yes (1)

----------
- ASSAY TARGET: T. gondii DHFR (tgDHFR) (Toxoplasma gondii, UniProt Q07422)
- EXPERIMENTAL SETUP: hDHFR IC50/tgDHFR IC50
PROPERTY LABEL: Average DHFR selectivity (h/tg)
Answer as a number with no unit attached.

Request: What value of Average DHFR selectivity (h/tg) has been reported for the following compound? Nc1ncc(N2CCN(c3cccc(-c4cnc(N5CCC5)nc4)c3)CC2)c(N)n1
Response: 130.84

Request: What value of Average DHFR selectivity (h/tg) has been reported for the following compound? CCCc1nc(N)nc(N)c1N1CCN(c2ncc(C)cn2)CC1
Response: 118.81

Request: What value of Average DHFR selectivity (h/tg) has been reported for the following compound? CC1CN(c2cccc(-c3ccccc3)c2)CCN1c1cnc(N)nc1N (stereo not drawn)
Response: 218.78

Request: What value of Average DHFR selectivity (h/tg) has been reported for the following compound? CCCc1nc(N)nc(N)c1N1CCC(c2ccccc2)CC1
Response: 241.03

Request: What value of Average DHFR selectivity (h/tg) has been reported for the following compound? Nc1nc(N)c(N2CCN(c3ccccc3)CC2)c(CC2CC2)n1
Response: 218.96

Request: What value of Average DHFR selectivity (h/tg) has been reported for the following compound? Nc1ncc(N2CCN(c3cccc(Br)c3)CC2)c(N)n1
Response: 37.15

----------
- ASSAY TARGET: T. gondii DHFR (tgDHFR) (Toxoplasma gondii, UniProt Q07422)
- EXPERIMENTAL SETUP: hDHFR IC50/tgDHFR IC50
PROPERTY LABEL: Average DHFR selectivity (h/tg)

Request: What value of Average DHFR selectivity (h/tg) has been reported for the following molecule? N#Cc1cccc(-c2cccc(N3CCN(c4cnc(N)nc4N)CC3)c2)c1
Response: 77.18

Request: What value of Average DHFR selectivity (h/tg) has been reported for the following molecule? CN(C)c1ncc(-c2cccc(N3CCN(c4cnc(N)nc4N)CC3)c2)cn1
Response: 115.48

Request: What value of Average DHFR selectivity (h/tg) has been reported for the following molecule? CCc1nc(N)nc(N)c1N1CCN(c2ccc(F)cn2)CC1
Response: 71.23

Request: What value of Average DHFR selectivity (h/tg) has been reported for the following molecule? CCc1nc(N)nc(N)c1N1CCN(c2ccc(C)cn2)CC1
Response: 136.15

Request: What value of Average DHFR selectivity (h/tg) has been reported for the following molecule? Nc1ncc(N2CCN(c3cccc(-c4cccc(F)c4)c3)CC2)c(N)n1
Response: 93.86

Request: What value of Average DHFR selectivity (h/tg) has been reported for the following molecule? CCc1ncc(-c2cccc(N3CCN(c4cnc(N)nc4N)CC3)c2)cn1
Response: 218.78

Request: What value of Average DHFR selectivity (h/tg) has been reported for the following molecule? CCCc1nc(N)nc(N)c1N1CCN(c2ccccc2)CC1
Response: 501.19

Request: What value of Average DHFR selectivity (h/tg) has been reported for the following molecule? CCCc1nc(N)nc(N)c1N1CCN(c2ccc(F)cc2)CC1
Response: 303.92

Request: What value of Average DHFR selectivity (h/tg) has been reported for the following molecule? CCc1nc(N)nc(N)c1N1CCN(c2cccc(C)c2)CC1
Response: 119.54

----------
I'd appreciate it if you could supply tgDHFR pIC50-DHFR primary assay values for the items below.
Answer as a number with no unit attached.

Request: Identify the measured tgDHFR pIC50-DHFR primary assay of Nc1ncc(N2CCN(c3ccccc3)CC2)c(N)n1 for T. gondii DHFR (tgDHFR) (Toxoplasma gondii, UniProt Q07422).
Response: 6.68

Request: Identify the measured tgDHFR pIC50-DHFR primary assay of Nc1ncc(N2CCN(c3cccc(-c4cncnc4)c3)CC2)c(N)n1 for T. gondii DHFR (tgDHFR) (Toxoplasma gondii, UniProt Q07422).
Response: 8.32

Request: Identify the measured tgDHFR pIC50-DHFR primary assay of Nc1ncc(N2CCN(c3cccc(C4CC4)c3)CC2)c(N)n1 for T. gondii DHFR (tgDHFR) (Toxoplasma gondii, UniProt Q07422).
Response: 7.54

Request: Identify the measured tgDHFR pIC50-DHFR primary assay of Nc1ncc(N2CCN(c3cccc(-c4ncccn4)c3)CC2)c(N)n1 for T. gondii DHFR (tgDHFR) (Toxoplasma gondii, UniProt Q07422).
Response: 7.56

Request: Identify the measured tgDHFR pIC50-DHFR primary assay of Cc1cccc(N2CCN(c3cnc(N)nc3N)CC2)c1 for T. gondii DHFR (tgDHFR) (Toxoplasma gondii, UniProt Q07422).
Response: 7.12

Request: Identify the measured tgDHFR pIC50-DHFR primary assay of Nc1ncc(N2CCN(c3cccc(-c4cnccn4)c3)CC2)c(N)n1 for T. gondii DHFR (tgDHFR) (Toxoplasma gondii, UniProt Q07422).
Response: 7.99

Request: Identify the measured tgDHFR pIC50-DHFR primary assay of Nc1ncc(N2CCN(c3cccc(-c4ccnnc4)c3)CC2)c(N)n1 for T. gondii DHFR (tgDHFR) (Toxoplasma gondii, UniProt Q07422).
Response: 8.22

Request: Identify the measured tgDHFR pIC50-DHFR primary assay of Nc1ncc(N2CCN(c3cccc(C(F)(F)F)c3)CC2)c(N)n1 for T. gondii DHFR (tgDHFR) (Toxoplasma gondii, UniProt Q07422).
Response: 7.21

Request: Identify the measured tgDHFR pIC50-DHFR primary assay of Nc1ncc(N2CCN(c3ccc(Cl)cc3)CC2)c(N)n1 for T. gondii DHFR (tgDHFR) (Toxoplasma gondii, UniProt Q07422).
Response: 7.34

----------
- ASSAY TARGET: hDHFR (Homo sapiens (Human), UniProt P00374)
- Sequence (P00374 whole entry): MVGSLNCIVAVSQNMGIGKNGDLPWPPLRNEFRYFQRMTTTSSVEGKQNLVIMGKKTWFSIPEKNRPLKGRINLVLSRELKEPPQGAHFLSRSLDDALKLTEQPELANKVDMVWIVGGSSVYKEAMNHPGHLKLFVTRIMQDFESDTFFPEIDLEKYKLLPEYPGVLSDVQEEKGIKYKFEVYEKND
- ASSAY INFO: DHFR inhibition assay (diaphorase/resazurin coupled, fluorescence of resorufin), human DHFR
- Assay type: biochemical
- EXPERIMENTAL SETUP: Table 11
Give True when the value for hDHFR pIC50-DHFR primary assay is at least 6. Give False when it is less.

Request: In plain terms: is recorded hDHFR pIC50-DHFR primary assay at least 6 for Cc1cccc(N2CCN(c3cnc(N)nc3N)CC2)c1 [Compound 7] ?
Response: False

Request: In plain terms: is recorded hDHFR pIC50-DHFR primary assay at least 6 for Nc1ncc(N2CCN(c3ccccc3)CC2)c(N)n1 [Compound 4] ?
Response: False

Request: In plain terms: is recorded hDHFR pIC50-DHFR primary assay at least 6 for Nc1ncc(N2CCN(c3cccc(C(F)(F)F)c3)CC2)c(N)n1 [Compound 3] ?
Response: True

Request: In plain terms: is recorded hDHFR pIC50-DHFR primary assay at least 6 for Nc1ncc(N2CCN(c3cccc(C4CC4)c3)CC2)c(N)n1 [Compound 66] ?
Response: False

----------
I'd appreciate it if you could supply Average DHFR selectivity (h/tg) values for the items below.
- ASSAY TARGET: T. gondii DHFR (tgDHFR) (Toxoplasma gondii)
- EXPERIMENTAL SETUP: hDHFR IC50/tgDHFR IC50

Request: What value of Average DHFR selectivity (h/tg) has been reported for the following molecule? CCc1nc(N)nc(N)c1N1CCN(c2ccc(C)cc2)CC1
Response: 144.58

Request: What value of Average DHFR selectivity (h/tg) has been reported for the following molecule? Nc1ncc(N2CCN(c3cccc(N4CCOCC4)c3)CC2)c(N)n1
Response: 105.15

Request: What value of Average DHFR selectivity (h/tg) has been reported for the following molecule? Cc1nc(N)nc(N)c1N1CCN(c2ccccc2)CC1
Response: 84.63

Request: What value of Average DHFR selectivity (h/tg) has been reported for the following molecule? CNc1ncc(-c2cccc(N3CCN(c4cnc(N)nc4N)CC3)c2)cn1
Response: 131.33

Request: What value of Average DHFR selectivity (h/tg) has been reported for the following molecule? CC1CN(c2cnc(N)nc2N)CCN1c1cccc(-c2ccccc2)c1 (stereo not shown)
Response: 14.96

Request: What value of Average DHFR selectivity (h/tg) has been reported for the following molecule? Nc1ncc(N2CCC(c3ccccc3)CC2)c(N)n1
Response: 25.26

Request: What value of Average DHFR selectivity (h/tg) has been reported for the following molecule? CCc1nc(N)nc(N)c1N1CCN(c2ccccc2)CC1
Response: 235.78
